assay-comment: Pharmacokinetics and colon distribution in rats
Format: in vivo, male Wistar rats
details: male, Wistar, plasma, po; rat, 5 mg/kg p.o., 12 hr; read-out: Mean concentration, Plasma
outcome-measure: concentration at 12 h (ng/mL)
Provide the reading as a plain figure in ng/mL.

Task: Can you share its concentration at 12 h? I mean this molecule: C#Cc1cc(Nc2nccc(Oc3ccc(NC(=O)Nc4cc(C(C)(C)C)nn4-c4ccc(C)cc4)c4ccccc34)n2)cc(C(=O)NCCOCCOCCOC)c1 [Example 2]
Result: 0.7

* * *

assay-comment: Pharmacokinetics and colon distribution in rats
Format: in vivo, male Wistar rats
details: male, Wistar, po; Rat, 5 mg/kg p.o., Plasma
Experimental: 30 male Wistar rats were divided into two groups: Group I (p.o.: 5 mg/kg) and Group II (i.v.: 0.25 mg/kg). […] From each rat, blood samples (approximately 120 μL) were collected from retro orbital plexus such that samples were obtained at pre-dose, 0.05, 0.13, 0.25, 0.5, 1, 2, 4, 8, and 24 hr (i.v.) and pre-dose, 0.5, 1, 2, 4, 6, 8, 12 and 24 hr (p.o.). […] Plasma and total colon tissue samples were quantified by LC-MS/MS method (LLOQ in plasma and total colon tissue=0.5 ng/mL).
outcome-measure: Cmax (ng/mL)
Provide the reading as a plain figure in ng/mL.

Task: Can you share its Cmax? I mean this molecule: C#Cc1cc(Nc2nccc(Oc3ccc(NC(=O)Nc4cc(C(C)(C)C)nn4-c4ccc(C)cc4)c4ccccc34)n2)cc(C(=O)NCCOCCOCCOC)c1 [Example 2]
Result: 2.7
